Biological target: PAK6 (human) (UniProt Q9NQU5)
Sequence (Q9NQU5 whole entry, looked up): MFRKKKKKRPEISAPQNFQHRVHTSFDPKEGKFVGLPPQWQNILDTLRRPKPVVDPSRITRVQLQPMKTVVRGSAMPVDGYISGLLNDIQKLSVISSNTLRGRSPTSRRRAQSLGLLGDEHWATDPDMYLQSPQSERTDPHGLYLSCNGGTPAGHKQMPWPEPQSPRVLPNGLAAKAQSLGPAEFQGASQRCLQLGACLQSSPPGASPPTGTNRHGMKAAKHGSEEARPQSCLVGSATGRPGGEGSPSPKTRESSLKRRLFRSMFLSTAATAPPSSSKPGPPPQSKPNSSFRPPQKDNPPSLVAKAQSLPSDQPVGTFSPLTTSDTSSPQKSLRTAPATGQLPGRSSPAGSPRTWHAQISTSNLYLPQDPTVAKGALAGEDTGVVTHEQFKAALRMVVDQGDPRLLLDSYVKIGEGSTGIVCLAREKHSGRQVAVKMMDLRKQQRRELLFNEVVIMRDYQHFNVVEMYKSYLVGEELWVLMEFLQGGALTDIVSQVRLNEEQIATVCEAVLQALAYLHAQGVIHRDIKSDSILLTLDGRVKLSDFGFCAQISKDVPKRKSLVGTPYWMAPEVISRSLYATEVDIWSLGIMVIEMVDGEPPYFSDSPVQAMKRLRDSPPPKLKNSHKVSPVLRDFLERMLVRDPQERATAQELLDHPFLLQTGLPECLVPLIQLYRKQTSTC
Assay: radiometric filter-binding kinase assay
Settings: compound 10.0 µM
Measure Name: residual activity (%)

[I] NC(=O)Nc1ccc2c(c1)/C(=C/c1cc(-c3cccnc3)c[nH]1)C(=O)N2
[II] N#Cc1c(O)c2c(-c3ccc(-c4ccccc4O)cc3)csc2[nH]c1=O
[III] CC(C)(C#N)c1ccc(N2C(=O)OCc3cnc4ccc(-c5cnc6ccccc6c5)cc4c32)cc1
Ask | List items by residual activity in falling order. Answer by listing the labels in the order asked for.
Reply | III, II, I
(III: 110%, II: 69%, I: 38%)

----------
Test system: PRKAA1 or PRKAA2 (rat)
Assay: radiometric filter-binding kinase assay
Details: compound 10.0 µM; accession and sequence are those of the human protein
Measure Name: residual activity (%)

Worked examples, 4 compounds total:
Compound	Target Or System	residual activity [%]
CC(C)C[C@H](NC(=O)CNC(=O)c1cc(Cl)ccc1Cl)B1OC(=O)CC(CC(=O)O)(C(=O)O)O1 (some centres not stated)	PRKAA1 or PRKAA2 (rat)	82
CC(C)(C#N)c1ccc(N2C(=O)OCc3cnc4ccc(-c5cnc6ccccc6c5)cc4c32)cc1	PRKAA1 or PRKAA2 (rat)	89
NS(=O)(=O)OC[C@@H]1C[C@@H](n2ccc3c(N[C@H]4CCc5ccccc54)ncnc32)C[C@@H]1O	PRKAA1 or PRKAA2 (rat)	99
Nc1cccc2c1CN(C1CCC(=O)NC1=O)C2=O (configuration not stated)	PRKAA1 or PRKAA2 (rat)	92

[a] CCn1c(-c2nonc2N)nc2cncc(CNC3CCNCC3)c21
[b] NC1(c2ccc(-c3nc4ccn5c(=O)[nH]nc5c4cc3-c3ccccc3)cc2)CCC1
[c] Cc1ccc(-c2ccc3c(ccc4sc5c(c43)NC[C@@H](C)NC5=O)n2)cn1
Ask | Endpoint returns the given compounds ordered by ascending residual activity. Answer by listing the labels in the order asked for.
Reply | c, a, b

----------
Molecular target: IRAK4 (human)
Test: radiometric filter-binding kinase assay
Conditions: compound 0.1 µM
Measure Name: residual activity (%)

Compound	Meas Value
CCCCCc1ccc(/C=C/[C@H](O)[C@@H](CO)NC)cc1	72
O=C(N[C@@H](COc1ccc2[nH]c(=O)[nH]c2c1)c1ccccc1)c1cccn(Cc2ccc(F)c(F)c2)c1=O	110
COc1cc(O)c2c(c1)[C@H]1OC1C[C@H](O)[C@H](O)C(=O)/C=C\C[C@H](C)OC2=O (stereo not given in full)	99
C=CC(=O)N1CCC[C@@H](n2nc(-c3ccc(Oc4ccccc4)cc3)c3c(N)ncnc32)C1	103
CN1CCN(CCOc2cc(OC3CCOCC3)c3c(Nc4c(Cl)ccc5c4OCO5)ncnc3c2)CC1	100

----------
Biological target: PTK6 (human)
Experiment: radiometric filter-binding kinase assay
Conditions: compound 0.1 µM
Measure Name: residual activity (%)

Worked examples, 7 compounds total:
Compound	Result Units	Meas Value
CCn1c(-c2nonc2N)nc2cncc(CNC3CCNCC3)c21	%	91
CC1=C(CO)C(=O)O[C@@H]([C@@H](C)[C@H]2CC[C@H]3[C@@H]4C[C@H]5O[C@]56[C@@H](O)C=CC(=O)[C@]6(C)C4CC[C@]23C)C1 (some centres undefined)	%	109
CNC(=O)C1[C@H]2O[C@@](C)([C@@H]1N)n1c3ccccc3c3c4c(c5c6ccccc6n2c5c31)C(=O)NC4 (some centres undefined)	%	16
CN1CCN(CCOc2cc(OC3CCOCC3)c3c(Nc4c(Cl)ccc5c4OCO5)ncnc3c2)CC1	%	31
COc1ccc(N(C(=O)Nc2c(C)cccc2C)c2cc(Nc3ccc(N4CCN(C)CC4)cc3)ncn2)c(OC)c1	%	24
COc1cc(O)c2c(c1)/C=C/C[C@H](O)[C@H](O)C(=O)/C=C\C[C@H](C)OC2=O	%	65
CCCCCc1ccc(/C=C/[C@H](O)[C@@H](CO)NC)cc1	%	104

[a] c1ccc2c(-c3cnn4cc(-c5ccc(N6CCNCC6)cc5)cnc34)ccnc2c1
[b] NC(=O)c1cc(-c2ccnc(NC3CCCCC3)c2)nc(N2CCNCC2)c1
Ask | Thinking about recorded residual activity values, which is higher, a or b ? Choose, then provide that item's label.
Reply | b
(b: 114%, a: 78%)

----------
Target: INSR (human) (UniProt P06213)
Sequence (P06213 whole entry, looked up): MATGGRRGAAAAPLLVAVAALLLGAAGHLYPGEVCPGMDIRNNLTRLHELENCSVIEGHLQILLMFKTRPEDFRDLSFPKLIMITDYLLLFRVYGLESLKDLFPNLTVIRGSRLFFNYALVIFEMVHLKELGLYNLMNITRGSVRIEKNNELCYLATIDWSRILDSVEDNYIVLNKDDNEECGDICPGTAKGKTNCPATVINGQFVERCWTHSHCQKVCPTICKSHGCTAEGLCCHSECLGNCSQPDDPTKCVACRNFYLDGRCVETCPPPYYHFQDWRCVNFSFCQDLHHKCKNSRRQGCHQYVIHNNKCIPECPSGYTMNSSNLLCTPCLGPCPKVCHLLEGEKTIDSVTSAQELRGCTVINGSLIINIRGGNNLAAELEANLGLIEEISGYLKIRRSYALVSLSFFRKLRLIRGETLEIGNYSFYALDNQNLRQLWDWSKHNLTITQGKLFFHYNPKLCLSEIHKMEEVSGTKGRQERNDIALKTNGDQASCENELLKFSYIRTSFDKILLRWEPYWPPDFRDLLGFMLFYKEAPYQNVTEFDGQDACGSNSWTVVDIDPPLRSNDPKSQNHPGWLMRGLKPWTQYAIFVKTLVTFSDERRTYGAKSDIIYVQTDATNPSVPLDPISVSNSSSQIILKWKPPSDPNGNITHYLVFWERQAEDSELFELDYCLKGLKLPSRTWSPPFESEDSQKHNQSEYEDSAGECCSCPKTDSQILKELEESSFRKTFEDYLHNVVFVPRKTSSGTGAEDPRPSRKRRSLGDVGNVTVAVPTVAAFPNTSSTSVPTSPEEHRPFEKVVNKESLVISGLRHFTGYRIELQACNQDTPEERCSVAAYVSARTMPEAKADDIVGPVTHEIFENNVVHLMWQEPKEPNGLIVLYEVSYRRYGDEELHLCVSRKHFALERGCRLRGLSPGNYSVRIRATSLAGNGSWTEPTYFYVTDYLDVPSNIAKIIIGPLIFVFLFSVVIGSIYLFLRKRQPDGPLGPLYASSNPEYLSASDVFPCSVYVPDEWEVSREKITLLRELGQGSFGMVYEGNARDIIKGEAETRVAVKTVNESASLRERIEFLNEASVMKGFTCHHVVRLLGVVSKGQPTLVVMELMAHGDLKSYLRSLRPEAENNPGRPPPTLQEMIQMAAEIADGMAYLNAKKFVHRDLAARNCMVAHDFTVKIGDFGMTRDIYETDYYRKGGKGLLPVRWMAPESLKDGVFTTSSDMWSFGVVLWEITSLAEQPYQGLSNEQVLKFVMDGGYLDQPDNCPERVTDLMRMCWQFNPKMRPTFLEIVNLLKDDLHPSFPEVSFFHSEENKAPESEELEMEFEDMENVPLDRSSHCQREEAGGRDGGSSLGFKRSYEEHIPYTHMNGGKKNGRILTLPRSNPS
Assay: radiometric filter-binding kinase assay
Conditions: compound 10.0 µM
Measure Name: residual activity (%)

Worked examples, 6 molecules total:
Molecule	residual activity, %
CCCCCc1ccc(/C=C/[C@H](O)[C@@H](CO)NC)cc1	99
C=CC(=O)N1CCC[C@@H](n2nc(-c3ccc(Oc4ccccc4)cc3)c3c(N)ncnc32)C1	31
O=S(=O)(c1ccc(F)c2nonc12)N1CCN(c2ncc(C(F)(F)F)cc2Cl)CC1	93
O=C(O)c1ccc(-c2c[nH]c3ncc(-c4ccccc4)cc23)cc1C1CCCC1	68
CC(C)(C#N)c1ccc(N2C(=O)OCc3cnc4ccc(-c5cnc6ccccc6c5)cc4c32)cc1	96
Cc1cc(SCc2sc(-c3ccc(C(F)(F)F)cc3)nc2C)ccc1OCC(=O)O	103

[1] NC(=O)c1c(NC(=O)C2CC2)sc2c1CCCC2
[2] N#Cc1c(C2CCNCC2)cc(-c2c(O)cccc2OCC2CC2)nc1N
[3] COc1cc(C(=O)N2CCOCC2)c(F)cc1Nc1ncc(C(F)(F)F)c(NC2CC2)n1
[4] CC(C)C[C@H](NC(=O)CNC(=O)c1cc(Cl)ccc1Cl)B1OC(=O)CC(CC(=O)O)(C(=O)O)O1 (stereo not given in full)
Ask | Endpoint returns the given molecules ordered by ascending residual activity. Answer by listing the labels in the order asked for.
Reply | 3, 2, 4, 1

----------
Biological target: BRSK2 (human) (UniProt Q8IWQ3)
Sequence (Q8IWQ3 whole entry, looked up): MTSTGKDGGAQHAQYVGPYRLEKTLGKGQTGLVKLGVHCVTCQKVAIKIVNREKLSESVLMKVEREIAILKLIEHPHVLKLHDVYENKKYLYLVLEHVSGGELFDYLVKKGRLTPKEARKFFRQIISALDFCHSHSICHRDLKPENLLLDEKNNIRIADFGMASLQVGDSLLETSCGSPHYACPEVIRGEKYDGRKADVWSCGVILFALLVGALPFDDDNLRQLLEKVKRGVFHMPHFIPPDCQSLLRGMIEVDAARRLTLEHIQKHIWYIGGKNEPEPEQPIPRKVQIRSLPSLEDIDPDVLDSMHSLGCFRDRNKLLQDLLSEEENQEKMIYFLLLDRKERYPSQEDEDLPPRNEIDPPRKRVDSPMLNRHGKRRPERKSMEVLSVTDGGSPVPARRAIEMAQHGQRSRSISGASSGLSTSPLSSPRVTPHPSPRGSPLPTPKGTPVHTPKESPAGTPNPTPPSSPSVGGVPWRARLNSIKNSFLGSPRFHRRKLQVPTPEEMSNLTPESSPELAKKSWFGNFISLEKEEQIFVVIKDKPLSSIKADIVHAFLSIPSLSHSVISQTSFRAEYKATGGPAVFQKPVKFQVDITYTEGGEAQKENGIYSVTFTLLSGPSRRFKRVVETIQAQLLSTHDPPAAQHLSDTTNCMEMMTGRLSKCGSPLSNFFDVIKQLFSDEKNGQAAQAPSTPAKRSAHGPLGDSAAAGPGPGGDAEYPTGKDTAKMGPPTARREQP
Assay: radiometric filter-binding kinase assay
Details: compound 1.0 µM
Measure Name: residual activity (%)

Worked examples, 3 compounds total:
Compound	Measure Name	Result Units	Meas Value
FC(F)(F)c1ccc(-c2ccc(Oc3cncc4sc(-c5nn[nH]n5)cc34)cc2)cc1	residual activity	%	115
Cc1cccc(Nc2nn(C)c3ncnc(N)c23)c1	residual activity	%	102
NCC(=O)Nc1ccc(-n2nc(C(F)(F)F)cc2-c2ccc3c(ccc4ccccc43)c2)cc1	residual activity	%	76

[1] Cc1ccc(Sc2cnc(Nc3cccc(Br)n3)s2)cc1C(=O)N1CCN(C(=O)CN)CC1
[2] NC(=O)Nc1ccc2c(c1)/C(=C/c1cc(-c3cccnc3)c[nH]1)C(=O)N2
[3] Cc1ccc(-c2ccc3c(ccc4sc5c(c43)NC[C@@H](C)NC5=O)n2)cn1
Ask | Task field, ranking: reported residual activity, descending order. Answer by listing the labels in the order asked for.
Reply | 1, 3, 2

[P] Cc1nc(-c2ccc(OCC(C)C)c(C#N)c2)sc1C(=O)O
[Q] c1ccc2c(-c3cnn4cc(-c5ccc(N6CCNCC6)cc5)cnc34)ccnc2c1
Ask | Please choose the item with the lower residual activity value from this pair: P and Q Choose, then provide that item's label.
Reply | Q
(Q: 68%, P: 100%)

----------
Biological target: UniProt P53778
Sequence (P53778 whole entry, looked up): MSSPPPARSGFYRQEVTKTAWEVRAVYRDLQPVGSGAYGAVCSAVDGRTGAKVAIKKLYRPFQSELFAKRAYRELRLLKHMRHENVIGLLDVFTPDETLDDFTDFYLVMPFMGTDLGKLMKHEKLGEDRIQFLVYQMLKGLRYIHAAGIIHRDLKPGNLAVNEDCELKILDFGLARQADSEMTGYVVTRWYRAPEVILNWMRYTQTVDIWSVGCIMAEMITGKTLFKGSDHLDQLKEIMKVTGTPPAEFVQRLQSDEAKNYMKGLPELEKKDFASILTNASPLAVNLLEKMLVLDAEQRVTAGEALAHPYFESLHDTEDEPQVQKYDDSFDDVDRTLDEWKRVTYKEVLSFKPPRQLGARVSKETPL
Experiment: radiometric filter-binding kinase assay
Conditions: compound 1.0 µM
Measure Name: residual activity (%)

CC(C)(C#N)c1ccc(N2C(=O)OCc3cnc4ccc(-c5cnc6ccccc6c5)cc4c32)cc1 88
Cc1ccc(-c2ccc3c(ccc4sc5c(c43)NC[C@@H](C)NC5=O)n2)cn1 115
O=C(Nc1ccccc1-c1cn2c(CN3CCNCC3)csc2n1)c1cnc2ccccc2n1 95

----------
Molecular target: EPHB4 (human) (UniProt P54760)
Sequence (P54760 whole entry, looked up): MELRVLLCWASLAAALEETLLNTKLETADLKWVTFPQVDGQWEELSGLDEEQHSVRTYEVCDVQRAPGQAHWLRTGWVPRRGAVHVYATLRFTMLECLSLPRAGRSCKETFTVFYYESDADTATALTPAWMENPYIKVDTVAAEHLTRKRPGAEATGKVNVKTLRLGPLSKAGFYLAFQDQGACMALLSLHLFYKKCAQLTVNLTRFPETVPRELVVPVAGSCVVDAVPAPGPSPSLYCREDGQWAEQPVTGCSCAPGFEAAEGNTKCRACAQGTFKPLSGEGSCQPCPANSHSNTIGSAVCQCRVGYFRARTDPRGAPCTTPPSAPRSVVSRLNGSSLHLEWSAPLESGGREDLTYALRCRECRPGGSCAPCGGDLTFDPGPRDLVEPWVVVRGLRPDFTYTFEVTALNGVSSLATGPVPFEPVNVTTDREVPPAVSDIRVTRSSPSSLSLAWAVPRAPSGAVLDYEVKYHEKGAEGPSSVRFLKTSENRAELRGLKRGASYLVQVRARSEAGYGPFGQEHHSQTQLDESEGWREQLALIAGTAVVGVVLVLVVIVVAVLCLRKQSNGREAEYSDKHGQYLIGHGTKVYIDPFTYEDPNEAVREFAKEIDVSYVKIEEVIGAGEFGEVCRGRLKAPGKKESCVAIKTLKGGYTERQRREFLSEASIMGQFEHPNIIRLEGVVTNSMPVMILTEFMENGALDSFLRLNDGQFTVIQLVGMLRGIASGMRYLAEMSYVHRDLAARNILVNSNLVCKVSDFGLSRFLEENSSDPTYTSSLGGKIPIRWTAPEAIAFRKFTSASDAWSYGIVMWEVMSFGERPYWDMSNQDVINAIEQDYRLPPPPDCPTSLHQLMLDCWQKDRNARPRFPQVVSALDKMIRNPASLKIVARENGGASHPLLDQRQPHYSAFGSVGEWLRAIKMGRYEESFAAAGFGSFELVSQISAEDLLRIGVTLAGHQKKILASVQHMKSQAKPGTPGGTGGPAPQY
Assay: radiometric filter-binding kinase assay
Conditions: compound 0.1 µM
Measure Name: residual activity (%)

Molecule	Measure Name	Meas Value
COc1ccc(N(C(=O)Nc2c(C)cccc2C)c2cc(Nc3ccc(N4CCN(C)CC4)cc3)ncn2)c(OC)c1	residual activity	80
COc1cc(O)c2c(c1)/C=C/C[C@H](O)[C@H](O)C(=O)/C=C\C[C@H](C)OC2=O	residual activity	87
O=C(NCCCNc1nc(Nc2cccc(CN3CCOCC3)c2)ncc1C1CC1)C1CCC1	residual activity	101

[P] NC1(c2ccc(-c3nc4ccn5c(=O)[nH]nc5c4cc3-c3ccccc3)cc2)CCC1
[Q] COc1ccc(-n2ncc3cnc(Nc4cc(OC)c(OC)c(OCCCN5CCN(C)CC5)c4)nc32)cc1
Ask | Thinking about recorded residual activity values, which is higher, P or Q ? Choose, then provide that item's label.
Reply | P

----------
Target: MAPK9 (human)
Experiment: radiometric filter-binding kinase assay
Conditions: compound 1.0 µM
Measure Name: residual activity (%)

Worked examples, 3 molecules total:
Molecule	Meas Value
O=C(O)c1cc(N=Nc2ccc(S(=O)(=O)Nc3ccccn3)cc2)ccc1O	128
COc1ccc(-n2ncc3cnc(Nc4cc(OC)c(OC)c(OCCCN5CCN(C)CC5)c4)nc32)cc1	33
N#Cc1c(C2CCNCC2)cc(-c2c(O)cccc2OCC2CC2)nc1N	83

[A] CNC(=O)C1[C@H]2O[C@@](C)([C@@H]1N)n1c3ccccc3c3c4c(c5c6ccccc6n2c5c31)C(=O)NC4 (stereo partly specified)
[B] O=C(Nc1nc2cc(C(F)(F)F)cc(NC3CC3)n2n1)c1cccnc1
Ask | Please choose the item with the lower residual activity value from this pair: A and B Choose, then provide that item's label.
Reply | A
(A: 4%, B: 90%)

[1] O=C(NOCC(O)CO)c1ccc(F)c(F)c1Nc1ccc(I)cc1Cl (stereo unspecified)
[2] Cc1cc(NC(=O)c2cccc(NC(=O)/C=C/CN(C)C)c2)ccc1Nc1nccc(-c2cccnc2)n1
Ask | Please choose the item with the lower residual activity value from this pair: 1 and 2 Choose, then provide that item's label.
Reply | 2
(2: 17%, 1: 88%)
